# Lookup of reported IC50 keyed by entry
test.system: Recombinant JAK1 (Homo sapiens, UniProt P23458)
Construct: purchased Carna Biosciences
Sequence (P23458 whole entry): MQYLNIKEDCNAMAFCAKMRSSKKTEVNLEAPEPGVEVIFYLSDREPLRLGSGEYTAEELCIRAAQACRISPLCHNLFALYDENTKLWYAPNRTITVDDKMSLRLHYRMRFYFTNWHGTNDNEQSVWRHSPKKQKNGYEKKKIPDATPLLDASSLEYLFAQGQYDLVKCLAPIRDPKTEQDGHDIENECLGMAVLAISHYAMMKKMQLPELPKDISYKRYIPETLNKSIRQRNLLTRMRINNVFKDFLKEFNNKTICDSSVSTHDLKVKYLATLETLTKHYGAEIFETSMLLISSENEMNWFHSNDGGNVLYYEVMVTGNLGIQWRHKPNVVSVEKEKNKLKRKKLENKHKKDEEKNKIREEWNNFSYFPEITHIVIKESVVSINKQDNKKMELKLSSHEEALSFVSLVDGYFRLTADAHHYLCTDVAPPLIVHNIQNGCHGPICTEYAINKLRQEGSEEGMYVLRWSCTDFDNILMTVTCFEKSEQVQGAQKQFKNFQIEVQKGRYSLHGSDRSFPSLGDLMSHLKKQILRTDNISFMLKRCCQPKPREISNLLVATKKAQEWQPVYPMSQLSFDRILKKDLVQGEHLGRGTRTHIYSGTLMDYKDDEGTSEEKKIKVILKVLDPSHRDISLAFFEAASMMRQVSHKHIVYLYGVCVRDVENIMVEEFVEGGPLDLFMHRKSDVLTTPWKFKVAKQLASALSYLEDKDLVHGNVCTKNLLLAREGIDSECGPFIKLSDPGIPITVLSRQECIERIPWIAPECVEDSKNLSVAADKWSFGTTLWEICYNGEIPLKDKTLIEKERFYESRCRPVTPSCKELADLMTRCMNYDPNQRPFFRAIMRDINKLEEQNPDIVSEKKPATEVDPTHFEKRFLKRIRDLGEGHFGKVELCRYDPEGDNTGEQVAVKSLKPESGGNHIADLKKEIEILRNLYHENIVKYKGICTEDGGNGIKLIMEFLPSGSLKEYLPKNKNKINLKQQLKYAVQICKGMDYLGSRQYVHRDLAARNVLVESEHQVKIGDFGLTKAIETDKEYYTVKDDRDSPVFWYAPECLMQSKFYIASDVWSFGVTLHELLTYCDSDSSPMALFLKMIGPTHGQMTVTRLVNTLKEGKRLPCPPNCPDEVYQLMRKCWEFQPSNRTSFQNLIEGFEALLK
assay.method.text: JAK biochemical assay (LANCE Ultra TR-FRET), JAK1
cond: recombinant JAK1, TR-FRET; read-out: Biochemical Assay (μM) JAK1
Where a name gives a salt, the structure may show the parent alone.

Before answering, review these 3 worked examples.
N#CCc1ccc(-n2cc(-c3ccnc4[nH]cnc34)cn2)nc1 [Example 1082, hydrochloride]; < 0.5 µM
N#CC1CN(C(=O)CNC(=O)n2cc(-c3ccnc4[nH]c(=O)[nH]c34)cn2)C1; > 1 µM
CS(=O)(=O)CCC(c1ccc(-n2cc(-c3ccnc4[nH]c(=O)[nH]c34)cn2)nc1)C(F)(F)F (centres unmarked) [Example 1189]; > 0.5 µM

Prompt: Can you share its IC50? I mean this compound: N#CC(c1ccc(-n2cc(-c3ccnc4[nH]cnc34)cn2)nc1)C1CC1 (centres unmarked)
Completion: > 0.1 µM

Prompt: Can you share its IC50? I mean this compound: OC(c1cccc(-n2cc(-c3ccnc4[nH]cnc34)cn2)n1)C(F)(F)F (centres unmarked)
Completion: > 0.1 µM

Prompt: Can you share its IC50? I mean this compound: CN(CCC(c1ccc(-n2cc(-c3ccnc4[nH]cnc34)cn2)nc1)C(F)(F)F)C1CC1 (centres unmarked)
Completion: < 0.1 µM

Prompt: Can you share its IC50? I mean this compound: CNC(=O)CCC(c1ccc(-n2cc(-c3ccnc4[nH]cnc34)cn2)nc1)C(F)(F)F (centres unmarked)
Completion: < 0.1 µM

Prompt: Can you share its IC50? I mean this compound: CN1CCC(C(O)(c2ccc(-n3cc(-c4ccnc5[nH]cnc45)cn3)nc2)C(F)(F)F)CC1 (centres unmarked)
Completion: < 0.1 µM

Data origin, for the record: patent US12516056B2
